Tested on: HCC 2998
Assay: NCI tumour cell line growth inhibition, 48 h
The source made the active and inactive calls. No stated cut-off is given here; in the data, active = GI50 up to about 1.1 µM and inactive = higher.
Reply using exactly one outcome from 1.0 for active, 0.0 for inactive

Some solved entries appear below for comparison.
Molecule: COc1ccc(C2COc3cc(O)c(O)cc3C2)cc1 (centres undefined)
Class: 0.0
--
Molecule: CCC12C=CCN3CCC4(c5cc(C(c6ccc(OC)cc6)C6Cc7ccccc7N6)c(OC)cc5N(C)C4C(O)(C(=O)OC)C1O)C32 (centres undefined)
Class: 0.0
--
Molecule: O=C(CCc1ccc(O)cc1)c1c(O)cc(O)cc1OC1OC(CO)C(O)C(O)C1O (centres undefined)
Class: 0.0
--
Molecule: Cc1cc(N(CCCCl)CCCCl)ccc1/C=N/c1cccc(Cl)c1
Class: 1.0
--
Molecule: COC1/C=C/C(C)C(C(C)C(OC)C(C)CCC(=O)C(C)C(C/C=C/N(C)C=O)OC)OC(=O)/C=C/C=C(\C)CC(OC)CC2=CC(=O)O[C@H](C2)C(C)C(OC)CC(OC)/C=C/C(C)C(OC)C1 (some centres undefined)
Class: 1.0

Record lookup: outcome of this test for Cc1cc(C)nc(NS(=O)(=O)c2ccc(NC(=O)c3ccc(Cl)c4c(Nc5ccc(S(=O)(=O)Nc6cc(C)on6)cc5)c5ccccc5nc34)cc2)n1 ?
0.0

Record lookup: outcome of this test for CO[C@@]1(c2ccccc2)O[C@H]2OCCC2[C@H]1c1ccc(Cl)cc1 (some centres undefined) ?
0.0

Record lookup: outcome of this test for CCCCc1c2c(nc3c1CCc1cc4cc5c(nc4nc1-3)-c1nc3c(c(CCCC)c1CC5)CCC/C3=C\c1ccccc1)/C(=C/c1ccccc1)CCC2 ?
0.0

Record lookup: outcome of this test for O=c1c(-c2ccccc2)c(SCCCN2CCCCC2)n(-c2ccccc2)c(=S)n1-c1ccccc1 ?
0.0

Record lookup: outcome of this test for CN1C(=O)CN=C(c2ccccc2F)c2cc(N=C=S)ccc21 ?
0.0

Record lookup: outcome of this test for COc1ccc2c(c1)CCc1c-2n(CCN2CCCCC2)c2ccc(OC)cc12 ?
0.0

Record lookup: outcome of this test for N#CC1(CCCI)CCCC1 ?
0.0

Record lookup: outcome of this test for COC12C(COC(=O)NCCO)C3=C(C(=O)C(C)=C(N)C3=O)N1CC1NC12 (centres undefined) ?
0.0

Record lookup: outcome of this test for Nc1nc(=O)c(/N=N/c2ccccc2)c(N)[nH]1 ?
0.0

Record lookup: outcome of this test for COC(=O)CCC(=O)c1ccc2c(c1)CC1(Cc3ccccc3C1)C2 ?
0.0

Record lookup: outcome of this test for C=C(Cl)/C(=C\Cl)CCC(Cl)C(C)C (centres undefined) ?
0.0

----------
Test system: HCT-116
Assay: NCI tumour cell line growth inhibition, 48 h
The source made the active and inactive calls. Rule as the data show it: active = GI50 up to about 1.1 µM and inactive = higher.
Readout label: GI50

Worked examples follow.
Compound: Cc1nn(-c2ccccc2)c2nc(N3CCOCC3)nnc12
GI50: > 100 µM (inactive)

Compound: O=C1/C(=N/c2ccccc2)Oc2cc(O)ccc21
GI50: > 100 µM (inactive)

Compound: O=c1c2ccccc2nc(-c2ccccc2Cl)n1NC1OC(CO)C(O)C(O)C1O (configuration not stated)
GI50: > 100 µM (inactive)

Compound: COC(=O)CCC1=NCC(C)(C)O1
GI50: > 10 µM (inactive)

Compound: Nc1nc(=O)c(/N=N/c2ccccc2)c(C(=O)O)[nH]1
GI50: 61.8 µM (inactive)

Field request: GI50 | item: S=C(CSc1ccccc1)Nc1cccc2ccccc12
35 µM (inactive)

Field request: GI50 | item: CCOC(=O)COc1cccc2occc(=O)c12
> 100 µM (inactive)

Field request: GI50 | item: C[N+](C)(C)CC1CCC/C1=N/O (configuration not stated)
21.5 µM (inactive)

Field request: GI50 | item: CCN(CC)CCCC(C)Nc1cc(-c2ccccc2)nc2cc(OC)ccc12 (configuration not stated)
2.84 µM (inactive)

Field request: GI50 | item: C/C(=N\NS(=O)(=O)c1ccccc1)c1ccc[n+]([O-])n1
88.1 µM (inactive)

Field request: GI50 | item: CC(C)O/C=C1\C(=O)C2(SCCS2)[C@H]2CCCC[C@@H]12
34.4 µM (inactive)

Field request: GI50 | item: CSc1c(C#N)c(O)n(-c2ccc(Cl)cc2)c(=O)c1C#N
63.5 µM (inactive)

----------
# GI50 listing for each entry below
Test system: SK-MEL-5
Assay: NCI tumour cell line growth inhibition, 48 h
Calls of active or inactive are those of the source. Rule as the data show it: active = GI50 up to about 1.1 µM and inactive = higher.

Worked examples follow.
Compound: c1ccc(-c2cn3nc(N4CCOCC4)sc3n2)cc1
Data value: > 100 µM (inactive)
--
Compound: COC(=O)C1CC(=O)CCC1c1ccccc1 (stereo not given)
Data value: > 100 µM (inactive)
--
Compound: COc1cc(OC)c(/C=C\c2ccnc3ccccc23)c(OC)c1
Data value: 1.7 µM (inactive)
--
Compound: CC(=O)NNc1nc(C)c(C(=O)NNC(=O)C(=O)Nc2c(Cl)cc([N+](=O)[O-])cc2Cl)s1
Data value: 40 µM (inactive)
--
Compound: CC(C)(C)C1=C(Br)C(O)(C(C)(C)C)OP1(=O)c1ccccc1 (stereo not given)
Data value: > 100 µM (inactive)
--
Compound: CCOC(=O)c1cc2c(=Cc3ccc(N(C)C)cc3)c3ccccc3n2[n+]1C
Data value: 1.32 µM (inactive)
--
Compound: CC1CNC(c2ccc(CN3CCC(CCCC4CCN(Cc5ccc(C6=NC(C)CN6)cc5)CC4)CC3)cc2)=N1 (stereo not given)
Data value: > 100 µM (inactive)
--
Compound: COc1cccc(C2c3cc4c(cc3OC3COC(=O)C32)OCO4)c1OC (stereo not given)
Data value: > 100 µM (inactive)
--
Compound: CN(C)CCS/C(=N\c1ccccc1)n1cccc1
Data value: 35.9 µM (inactive)

Field request: GI50 | item: O=C1NC(=O)C(c2c[nH]c3ccccc23)=C1c1cn(C(c2ccccc2)(c2ccccc2)c2ccccc2)cn1
7.57 µM (inactive)

----------
# GI50 listing for each entry below
Test system: U-251
Assay: NCI tumour cell line growth inhibition, 48 h
The source made the active and inactive calls. Cut-off read from the data, not from the text of the source: active = GI50 up to about 1.1 µM and inactive = higher.

Molecule: O=C(Nc1ccccc1)c1cc(S(=O)(=O)Nc2n[nH]c(=O)n2-c2ccccc2)c(S)cc1Cl
Study system: U-251
Data value: > 100 µM (inactive)

Field request: GI50 | item: CN(C(=O)c1ccco1)C(=S)N1CCN(c2ccccc2)CC1
> 100 µM (inactive)

Field request: GI50 | item: COC(=O)[C@@H]1[C@@H]2NC(=S)N[C@@]1(C)Oc1ccccc12
38.3 µM (inactive)

Field request: GI50 | item: c1ccc(-c2cn3nc(N4CCOCC4)sc3n2)cc1
48.6 µM (inactive)

Field request: GI50 | item: CC(C)(C)C1=C(Br)C(O)(C(C)(C)C)OP1(=O)c1ccccc1 (stereo not given)
> 100 µM (inactive)

----------
Tested on: HCC 2998
Assay: NCI tumour cell line growth inhibition, 48 h
Active and inactive are the calls of the source. Rule as the data show it: active = GI50 up to about 1.1 µM and inactive = higher.
Reply using exactly one outcome from active, inactive

Some solved entries appear below for comparison.
Compound: COc1ccc(NC(=O)CC/C(CC(=O)c2ccccc2Cl)=N\Nc2nnc(C)n2N)cc1
Class: inactive
//
Compound: O=C1C[C@@H]2[C@@H](C=CC23CC3)N1O
Class: inactive
//
Compound: COc1nc(NC2OC(COC(C)=O)C(OC(C)=O)C(OC(C)=O)C2OC(C)=O)c(/N=C/C=N/c2c(NC3OC(COC(C)=O)C(OC(C)=O)C(OC(C)=O)C3OC(C)=O)nc(OC)[nH]c2=O)c(=O)[nH]1 (stereo not given)
Class: inactive
//
Compound: O=C(O)c1cccc(CC(Br)C(=O)O)c1 (stereo not given)
Class: inactive
//
Compound: Cc1nc2ccc(C(F)(F)F)cc2nc1NCc1ccc(Cl)c(Cl)c1
Class: inactive
//
Compound: Cn1c2ccccc2n2c3ncccc3/c(=N/CCCC(=O)O)c(C#N)c12
Class: inactive
//
Compound: CSC1C=C(C(C)C)CCC1(C)SC (stereo not given)
Class: inactive
//
Compound: Oc1c(OCc2nnc(CCCCCCCCc3nnc(COc4ccc5ccccc5c4O)n3Nc3ccccc3)n2Nc2ccccc2)ccc2ccccc12
Class: inactive

Record lookup: outcome of this test for CCN(CC)CCCC(C)Nc1cc(-c2ccccc2)nc2cc(OC)ccc12 (stereo not given) ?
inactive

Record lookup: outcome of this test for O=C1C2=Cc3ccccc3OC2(O)Oc2cc(O)ccc21 (stereo not given) ?
inactive

Record lookup: outcome of this test for COC(=O)[C@@H]1CCCCC[C@H]2C(CO)=C(C)C(=O)C12 (stereo not given in full) ?
inactive

Record lookup: outcome of this test for CC1(C)CC(=O)c2c(nc3c4c([nH]c(-c5ccc(Br)cc5)c24)CC(C)(C)C3)C1 ?
inactive

Record lookup: outcome of this test for CC(=O)O[C@@]12CO[C@@H]1C[C@@H](O)[C@@]1(C)C(=O)[C@H](O)C3=C(C)[C@@H](OC(=O)[C@H](O)[C@@H](NC(=O)c4ccccc4)c4ccccc4)C[C@@](O)([C@@H](OC(=O)c4ccccc4)C12)C3(C)C (stereo not given in full) ?
active

Record lookup: outcome of this test for CCN(CC)C(=S)SS(=O)(=O)c1ccc(F)cc1 ?
inactive
